Hello, the source for this data is patent US20260034123A1, in case you need it.

The reader will find reported pIC50 values listed item by item below.
# test_target: CDK2/Cyclin E1 (Homo sapiens, UniProt P24941)
# experimental_protocol: ADP-Glo Luminescent Kinase Assay (CDK2/E1-37C)
# Type: biochemical
# experimental_context: 0.18 nM CDK2/Cyclin E1, 100 μM ATP, Histone H1, 37° C.; read-out: ADPGLO (CDK2/E1-37C): IC50
pIC50: −log10 of the molar value.

molecule: CC1(C)C[C@@H]1C(=O)N1CC2(CN(C(=O)c3cnn(Cc4ccc(F)cc4)c3)C[C@H]2COCc2c(F)ccc(C3CCC(F)(F)CC3)c2C(=O)O)C1 [Compound I-119]
pIC50: ≥ 6.30
//
molecule: CC1(C)C[C@@H]1C(=O)N1CC2(CN(C(=O)c3cnn(Cc4ccc(F)cc4)c3)CC2COc2cccc(OC3CCC(F)(F)CC3)c2C(=O)O)C1 (some centres unmarked) [Compound I-130]
pIC50: ≥ 6.30
//
molecule: CC(C)(C(=O)N1CC2(C1)CN(c1cc(F)c(F)c3ncsc13)C[C@H]2COCc1cccc(C2CCC(F)(F)CC2)c1C(=O)O)C(F)(F)F [I′-71]
pIC50: ≥ 6.30
//
molecule: CC(C)(C(=O)N1CC2(CN(C(=O)c3cnn(Cc4ccc(F)cc4)c3)C[C@H]2COCc2cccc(C3CCC(F)(F)CC3)c2C(=O)OCCN2CCOCC2)C1)C(F)(F)F [I′-31]
pIC50: ≥ 6.30
//
molecule: CC1(C)C[C@@H]1C(=O)N1CC2(CN(C(=O)c3cnn(Cc4ccc(F)cc4C(F)(F)F)c3)C[C@H]2COCc2cccc(C3CCC(F)(F)CC3)c2C(=O)O)C1 [Compound I-118]
pIC50: ≥ 6.30
//
molecule: Cc1cc(N2C[C@@H](COCc3cccc(C4CCC(F)(F)CC4)c3C(=O)O)C3(CN(C(=O)C4(C(F)(F)F)CC4)C3)C2)c2scnc2c1C [I′-41]
pIC50: < 5.00
//
molecule: CC1(C)C[C@@H]1C(=O)N1CC2(CN(C(=O)c3cnn(Cc4ccc(F)cc4)c3)C[C@H]2COCc2cccc(C3CCC(F)(F)CC3)c2C(=O)OCCN2CCOCC2)C1 [I′-36]
pIC50: ≥ 6.30
//
molecule: CN(C)CCNC(=O)c1c(COC[C@@H]2CN(C(=O)c3cnn(Cc4ccc(F)cc4)c3)CC23CN(C(=O)C(C)(C)C(F)(F)F)C3)cccc1C1CCC(F)(F)CC1 [I′-18]
pIC50: ≥ 6.30
//
molecule: N#Cc1ccc(Cn2cc(C(=O)N3CC(CS(=O)(=O)Cc4cccc(-c5ccc(C(F)(F)F)cc5)n4)C4(C3)CN(C(=O)C3(C(F)(F)F)CC3)C4)cn2)cc1 (centres unmarked) [Compound I-2]
pIC50: 5.00 to 5.30
//
molecule: COC(=O)c1c(COCC2CN(C(=O)c3cncs3)CC23CN(C(=O)[C@H]2CC2(C)C)C3)cccc1-c1ccc(C(F)(F)F)cc1 (some centres unmarked) [Compound I-5]
pIC50: 5.30 to 6.30
//
molecule: O=C(O)c1c(COC[C@@H]2CN(C(=O)c3cnn(Cc4ccc(F)cc4)c3)CC23CN(C(=O)C2(C(F)(F)F)CC2)C3)cccc1C1CCC(F)(F)CC1 [Compound I-51]
pIC50: ≥ 6.30

* * *

# test_target: CDK2/Cyclin E1 (Homo sapiens)
# experimental_protocol: Caliper LabChip EZ Reader mobility shift assay
# Type: biochemical
# experimental_context: 2.5 nM CDK2/Cyclin E1(14-475), 100 μM ATP, 30 min preincubation; read-out: Caliper Assay (CDK2/CCNE1): IC50

compound: CC1(C)C[C@@H]1C(=O)N1CC2(CN(C(=O)c3cnn(Cc4ccc(C(=O)O)cc4)c3)CC2COCc2cccc(-c3ccc(C(F)(F)F)cc3)n2)C1 (some centres unmarked)
IC50: 1 to 10 µM
//
compound: CC1(C)C[C@@H]1C(=O)N1CC2(CN(C(=O)c3cncs3)C[C@H]2COCC2CCCCO2)C1 (some centres unmarked)
IC50: > 10 µM
//
compound: CC1(C)C[C@@H]1C(=O)N1CC2(C1)CN(c1cccc3ncsc13)CC2COCc1cccc(C2CCOCC2)n1 (some centres unmarked)
IC50: > 10 µM
//
compound: O=C(c1cncs1)N1C[C@@H](COCc2cccc(-c3ccc(C(F)(F)F)cc3)n2)C2(CN(CC3COC3)C2)C1
IC50: > 10 µM
//
compound: CC1(C)C[C@@H]1C(=O)N1CC2(CN(C(=O)c3cncs3)C[C@H]2COCc2cc3ccccc3c(C3CCOCC3)n2)C1
IC50: 0.1 to 1 µM
//
compound: CC1(C)C[C@@H]1C(=O)N1CC2(CN(C(=O)c3cncs3)C[C@H]2COCc2cccc(-c3ccc(C(F)(F)F)cc3)n2)C1
IC50: 0.01 to 0.1 µM
//
compound: CC1(C)C[C@@H]1C(=O)N1CC2(CN(C(=O)c3cncs3)C[C@H]2COCc2cncc(C3CCOCC3)c2)C1
IC50: 1 to 10 µM
//
compound: CC(C)(C)CN1CC2(C1)CN(C(=O)c1cncs1)C[C@H]2COCc1cccc(-c2ccc(C(F)(F)F)cc2)n1
IC50: > 10 µM
//
compound: O=C([C@H]1CC1(F)F)N1CC2(CN(Cc3cncs3)C[C@H]2COCc2cccc(-c3ccc(C(F)(F)F)cc3)n2)C1
IC50: > 10 µM
//
compound: Cc1c(COC[C@@H]2CN(C(=O)c3cncs3)CC23CN(C(=O)[C@H]2CC2(C)C)C3)cccc1C1CCOCC1
IC50: 0.1 to 1 µM
//
compound: CC1(C)C[C@@H]1C(=O)N1CC2(CN(C(=O)c3cncs3)C[C@@H]2COCc2cccc(C3CCOCC3)n2)C1
IC50: 1 to 10 µM
//
compound: CC1(C)C[C@@H]1C(=O)N1CC2(CN(C(=O)c3cncs3)C[C@H]2COCc2ccn[nH]2)C1
IC50: > 10 µM
//
compound: CC1(C)C[C@@H]1C(=O)N1CC2(CN(C(=O)c3cncs3)CC2COCc2cccc(-c3ccc(C(F)(F)F)cc3)c2C(=O)O)C1 (some centres unmarked)
IC50: < 0.01 µM
//
compound: CC(OC[C@@H]1CN(C(=O)c2cncs2)CC12CN(C(=O)[C@H]1CC1(C)C)C2)c1cccc(C2CCOCC2)n1 (some centres unmarked)
IC50: 1 to 10 µM
//
compound: CC1(C)C[C@@H]1C(=O)N1CC2(CN(C(=O)c3cncs3)C[C@H]2COCc2ccnn2C2CCCC2)C1
IC50: > 10 µM
//
compound: CN(Cc1cccc(C2CCOCC2)n1)C[C@@H]1CN(C(=O)c2cncs2)CC12CN(C(=O)[C@H]1CC1(C)C)C2
IC50: > 10 µM
//
compound: CC1(C)C[C@@H]1C(=O)N1CC2(CN(C(=O)c3cncs3)C[C@H]2COCc2cccc(-c3cccnc3)n2)C1
IC50: 0.1 to 1 µM
//
compound: CC1(C)C[C@@H]1C(=O)N1CC2(CN(C(=O)c3cncs3)C[C@H]2COCc2cccc(C3CCOCC3)c2)C1
IC50: 0.1 to 1 µM
//
compound: CC1(C)C[C@@H]1C(=O)N1CC2(CN(C(=O)c3cncs3)C[C@H]2COCc2ccc(C(F)(F)F)cc2)C1
IC50: 1 to 10 µM
//
compound: COc1ccccc1-c1cccc(C(=O)NC[C@@H]2CN(CC3CCCO3)CC23CN(C(=O)[C@H]2CC2(C)C)C3)n1 (some centres unmarked)
IC50: 1 to 10 µM
//
compound: CC1(C)C[C@@H]1C(=O)N1CC2(CN(CC3CCCO3)C[C@H]2CNC(=O)c2cccc(-c3ccc(C(F)(F)F)cc3)n2)C1 (some centres unmarked)
IC50: > 10 µM
//
compound: CC1(C)C[C@@H]1C(=O)N1CC2(CN(C(=O)c3cncs3)C[C@H]2COCc2cccc(-c3ccc(C(F)(F)F)nc3)n2)C1
IC50: 0.1 to 1 µM
//
compound: CC1(C)C[C@@H]1C(=O)N1CC2(CN(C(=O)c3cncs3)CC2COCc2cccc(C3=CCOCC3)n2)C1 (some centres unmarked)
IC50: 1 to 10 µM
//
compound: COC(=O)c1c(COCC2CN(C(=O)c3cncs3)CC23CN(C(=O)[C@H]2CC2(C)C)C3)cccc1-c1ccc(C(F)(F)F)cc1 (some centres unmarked)
IC50: 0.01 to 0.1 µM
//
compound: CC1(C)C[C@@H]1C(=O)N1CC2(CN(Cc3cnccn3)C[C@H]2COCc2cccc(-c3ccc(C(F)(F)F)cc3)n2)C1
IC50: > 10 µM
//
compound: O=C(c1cncs1)N1C[C@@H](COCc2cccc(-c3ccc(C4(C(F)(F)F)CC4)cc3)n2)C2(CN(CC3CCCO3)C2)C1 (some centres unmarked)
IC50: > 10 µM

* * *

# test_target: CDK2/Cyclin E1 (Homo sapiens)
# experimental_protocol: Caliper LabChip EZ Reader mobility shift assay
# Type: biochemical
# experimental_context: 2.5 nM CDK2/Cyclin E1(14-475), 100 μM ATP, 30 min preincubation; read-out: Caliper Assay (CDK2/CCNE1): IC50
pIC50: −log10 of the molar value.
measured_attribute: pIC50

compound: CC1(C)C[C@@H]1C(=O)N1CC2(CN(C(=O)c3cncs3)C[C@H]2COCc2cccc(C3CCC(OC(F)(F)F)CC3)n2)C1 (stereo partly shown) [Compound I-24]
test_target: CDK2/Cyclin E1 (Homo sapiens)
measured_attribute: pIC50
result: 7.00 to 8.00
//
compound: CC1(C)C[C@@H]1C(=O)N1CC2(CN(C(=O)c3cncs3)C[C@H]2COCc2cc(C3CCOCC3)ccn2)C1 [Compound I-43]
test_target: CDK2/Cyclin E1 (Homo sapiens)
measured_attribute: pIC50
result: 5.00 to 6.00
//
compound: O=C(c1cncs1)N1C[C@@H](COCc2cccc(-c3ccc(C4CC4)cc3)n2)C2(CN(CC3CCCO3)C2)C1 (stereo partly shown) [Compound I-8]
test_target: CDK2/Cyclin E1 (Homo sapiens)
measured_attribute: pIC50
result: < 5.00
//
compound: CC1(C)C[C@@H]1C(=O)N1CC2(CN(C(=O)c3cncs3)C[C@H]2COCc2cccc(-c3ccccc3)n2)C1 [Compound I-36]
test_target: CDK2/Cyclin E1 (Homo sapiens)
measured_attribute: pIC50
result: 6.00 to 7.00
